Target: p110β/p85α (Homo sapiens (Human))
Sequence (P42338 whole entry, one chain of several): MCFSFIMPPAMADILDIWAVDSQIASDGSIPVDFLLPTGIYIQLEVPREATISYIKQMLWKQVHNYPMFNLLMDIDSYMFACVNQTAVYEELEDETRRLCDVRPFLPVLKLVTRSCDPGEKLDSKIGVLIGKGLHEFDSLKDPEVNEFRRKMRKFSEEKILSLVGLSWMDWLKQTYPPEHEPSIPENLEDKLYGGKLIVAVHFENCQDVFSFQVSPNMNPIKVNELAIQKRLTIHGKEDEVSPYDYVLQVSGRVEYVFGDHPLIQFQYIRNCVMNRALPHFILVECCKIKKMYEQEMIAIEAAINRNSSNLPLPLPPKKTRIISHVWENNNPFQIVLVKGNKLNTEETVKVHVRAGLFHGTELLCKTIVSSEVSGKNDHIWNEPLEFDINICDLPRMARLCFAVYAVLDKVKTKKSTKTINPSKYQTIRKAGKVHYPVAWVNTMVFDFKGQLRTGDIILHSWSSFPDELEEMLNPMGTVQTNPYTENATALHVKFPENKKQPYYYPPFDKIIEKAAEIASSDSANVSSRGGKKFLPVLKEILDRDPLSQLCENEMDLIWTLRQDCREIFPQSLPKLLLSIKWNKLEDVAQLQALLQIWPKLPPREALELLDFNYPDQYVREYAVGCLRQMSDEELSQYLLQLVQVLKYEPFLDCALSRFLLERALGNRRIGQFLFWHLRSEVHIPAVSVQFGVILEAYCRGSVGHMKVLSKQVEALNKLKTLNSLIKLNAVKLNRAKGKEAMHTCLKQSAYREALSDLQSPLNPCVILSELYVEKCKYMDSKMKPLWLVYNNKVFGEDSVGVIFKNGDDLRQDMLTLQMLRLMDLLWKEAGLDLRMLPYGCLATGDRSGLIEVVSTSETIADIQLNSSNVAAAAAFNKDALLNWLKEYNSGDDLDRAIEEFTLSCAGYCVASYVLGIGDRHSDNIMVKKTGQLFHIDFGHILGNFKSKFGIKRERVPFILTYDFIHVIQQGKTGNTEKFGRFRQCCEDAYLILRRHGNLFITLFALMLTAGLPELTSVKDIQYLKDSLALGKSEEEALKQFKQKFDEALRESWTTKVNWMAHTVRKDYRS
Test: PI 3-Kinase (human) HTRF assay, p110β/p85α
Type: biochemical
Conditions: read-out: PI3K β IC50
Reported IC50 is given for each of the following compounds.

Here's what some known entries look like.
COMPOUND: CC1CN(c2cnc3ccc(-c4ccc5oc(N)nc5c4)cc3n2)CC(C)N1 (stereo not drawn)
IC50: < 1 µM

COMPOUND: Nc1nc2cc(-c3ccc4ncc(N5CC(C(=O)N6CCOCC6)C5)nc4c3)ccc2o1
IC50: < 1 µM

COMPOUND: Cc1nc2ccc(-c3ccc4oc(N)nc4c3)nn2c1-c1ccncc1
IC50: < 1 µM

COMPOUND: Nc1nc2cc(-c3ccc4ncc(N5CCNCC5)nc4c3)ccc2o1
IC50: < 0.1 µM

COMPOUND: Nc1nc2cc(-c3ccc4ncnc(NC5CCN(C(=O)C6CC6)CC5)c4c3)ccc2o1
IC50: < 10 µM

COMPOUND: CC(C)(C)N1CCN(C(=O)c2cnc3ccc(-c4ccc5oc(N)nc5c4)cn23)CC1
IC50: < 10 µM

Just so you know, measured IC50 for CC(=O)N1CCC(Nc2ncnc3ccc(-c4ccc5oc(N)nc5c4)cc23)CC1 came out at < 10 µM

response.value for Nc1nc2cc(-c3ccc4nccc(-c5ccncc5)c4c3)ccc2s1 (field: IC50) = < 0.1 µM

Entry Nc1nc2cc(-c3ccc4ncc(C(=O)N5CCOCC5)n4n3)ccc2o1 , IC50 reported as < 10 µM

IC50 in this record for CN1CCN(C(=O)c2cnc3ccc(-c4ccc5sc(N)nc5c4)cn23)CC1 : < 10 µM

IC50 measured on Nc1nc2cc(-c3ccc4ncc(N5CCN(CC6CC6)CC5)nc4c3)ccc2o1 = < 0.1 µM

====

Molecular target: p110α/p85α (Homo sapiens (Human), UniProt P42336)
Sequence (P42336 whole entry): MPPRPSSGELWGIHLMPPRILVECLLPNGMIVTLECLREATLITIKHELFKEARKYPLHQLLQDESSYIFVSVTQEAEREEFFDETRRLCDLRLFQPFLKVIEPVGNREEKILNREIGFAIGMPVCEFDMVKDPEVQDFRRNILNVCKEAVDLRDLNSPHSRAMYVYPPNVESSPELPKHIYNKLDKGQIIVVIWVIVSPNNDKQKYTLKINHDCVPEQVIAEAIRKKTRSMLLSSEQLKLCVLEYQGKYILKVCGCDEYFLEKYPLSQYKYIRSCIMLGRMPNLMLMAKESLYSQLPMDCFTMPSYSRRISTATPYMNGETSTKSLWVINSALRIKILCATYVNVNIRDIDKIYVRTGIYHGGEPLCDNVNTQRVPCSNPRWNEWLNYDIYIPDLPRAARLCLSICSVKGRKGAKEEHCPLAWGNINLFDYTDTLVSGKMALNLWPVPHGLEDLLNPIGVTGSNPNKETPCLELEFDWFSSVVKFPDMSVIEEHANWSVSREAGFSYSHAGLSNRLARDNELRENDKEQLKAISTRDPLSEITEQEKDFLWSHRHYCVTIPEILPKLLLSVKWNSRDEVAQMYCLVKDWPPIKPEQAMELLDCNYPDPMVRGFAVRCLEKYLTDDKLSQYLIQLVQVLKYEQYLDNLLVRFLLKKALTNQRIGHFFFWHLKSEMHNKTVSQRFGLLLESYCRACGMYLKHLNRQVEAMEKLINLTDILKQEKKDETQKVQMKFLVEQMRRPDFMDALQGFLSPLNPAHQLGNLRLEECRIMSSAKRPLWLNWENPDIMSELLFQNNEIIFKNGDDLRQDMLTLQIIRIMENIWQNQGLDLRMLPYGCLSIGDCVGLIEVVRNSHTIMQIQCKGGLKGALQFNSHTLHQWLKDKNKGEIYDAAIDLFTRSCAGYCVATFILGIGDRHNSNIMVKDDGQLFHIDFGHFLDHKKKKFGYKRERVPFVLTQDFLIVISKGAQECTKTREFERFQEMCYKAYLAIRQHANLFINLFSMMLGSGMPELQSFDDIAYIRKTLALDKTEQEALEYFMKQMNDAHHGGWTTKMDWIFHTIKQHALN
Sequence (P27986 whole entry partner): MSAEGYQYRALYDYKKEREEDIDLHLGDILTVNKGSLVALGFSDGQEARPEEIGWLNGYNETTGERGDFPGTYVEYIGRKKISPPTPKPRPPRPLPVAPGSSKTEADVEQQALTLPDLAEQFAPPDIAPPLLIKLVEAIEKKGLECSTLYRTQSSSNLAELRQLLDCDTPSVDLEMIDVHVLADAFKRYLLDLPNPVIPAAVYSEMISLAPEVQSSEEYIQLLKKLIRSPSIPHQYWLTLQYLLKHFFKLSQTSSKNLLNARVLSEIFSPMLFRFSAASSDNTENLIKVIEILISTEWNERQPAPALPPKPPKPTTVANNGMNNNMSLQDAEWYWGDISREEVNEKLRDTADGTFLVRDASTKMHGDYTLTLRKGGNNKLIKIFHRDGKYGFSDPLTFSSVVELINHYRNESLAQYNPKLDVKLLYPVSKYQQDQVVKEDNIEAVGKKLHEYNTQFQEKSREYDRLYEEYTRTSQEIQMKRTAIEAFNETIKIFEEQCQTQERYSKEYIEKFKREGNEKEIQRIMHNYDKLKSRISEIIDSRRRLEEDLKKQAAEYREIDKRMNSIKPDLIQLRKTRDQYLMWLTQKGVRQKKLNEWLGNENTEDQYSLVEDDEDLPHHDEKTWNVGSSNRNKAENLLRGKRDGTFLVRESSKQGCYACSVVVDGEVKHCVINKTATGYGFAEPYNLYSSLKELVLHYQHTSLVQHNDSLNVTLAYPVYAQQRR
Assay: PI 3-Kinase (human) HTRF assay, p110α/p85α
Type: biochemical
Details: read-out: PI3K α IC50
Below, each entry is listed alongside its reported IC50.

COMPOUND: CN1CCCN(c2cnc3ccc(-c4ccc5oc(N)nc5c4)cc3n2)CC1
SYSTEM: p110α/p85α (Homo sapiens (Human), UniProt P42336)
IC50: < 1 µM

Just so you know, measured IC50 for Nc1nc2cc(-c3ccc4ncc(C(=O)NC5CCOCC5)n4c3)ccc2o1 came out at < 0.1 µM

Recorded IC50 (compound Nc1nc2cc(-c3ccc4ncc(C(=O)N5CCOCC5)nc4c3)ccc2o1 ): < 10 µM

The reported IC50 of the compound CN1CCN(c2nc3cc(-c4ccc5oc(N)nc5c4)ccc3c(=O)n2C)CC1 was < 10 µM

====

Target: p110β/p85α (Homo sapiens (Human))
Assay: PI 3-Kinase (human) HTRF assay, p110β/p85α
Format: biochemical
Details: in vitro; read-out: PI3K β IC50
pIC50: −log10 of the molar value.
OBSERVATION_TYPE: pIC50

Entry under test: Cc1cn(C2CN(c3cnc4ccc(-c5ccc6oc(N)nc6c5)cc4n3)C2)cn1 . Its pIC50 was > 6.00

Measured pIC50, Nc1nc2cc(-c3ccc4ncc(N5CCN(C(=O)[C@H](N)CO)CC5)nc4c3)ccc2o1 : > 6.00

Per the records, this compound ( CC1(C)CN(c2cnc3ccc(-c4ccc5oc(N)nc5c4)cc3n2)CCN1 ) has pIC50 equal to > 6.00

Item: CC(C)Oc1nc(-c2ccc3oc(N)nc3c2)cnc1N | pIC50: > 5.00

// field: pIC50; key: CS(=O)(=O)N1CCN(C2CCN(c3cnc4ccc(-c5ccc6oc(N)nc6c5)cc4n3)CC2)CC1 ; value = > 5.00

pIC50 reported for this compound Nc1nc2cc(-c3ccc4ncc(N5CC(N6CCOCC6)C5)nc4c3)c(F)cc2o1 : > 5.00

====

Biological target: p110γ (Homo sapiens (Human), UniProt P48736)
Sequence (P48736 whole entry): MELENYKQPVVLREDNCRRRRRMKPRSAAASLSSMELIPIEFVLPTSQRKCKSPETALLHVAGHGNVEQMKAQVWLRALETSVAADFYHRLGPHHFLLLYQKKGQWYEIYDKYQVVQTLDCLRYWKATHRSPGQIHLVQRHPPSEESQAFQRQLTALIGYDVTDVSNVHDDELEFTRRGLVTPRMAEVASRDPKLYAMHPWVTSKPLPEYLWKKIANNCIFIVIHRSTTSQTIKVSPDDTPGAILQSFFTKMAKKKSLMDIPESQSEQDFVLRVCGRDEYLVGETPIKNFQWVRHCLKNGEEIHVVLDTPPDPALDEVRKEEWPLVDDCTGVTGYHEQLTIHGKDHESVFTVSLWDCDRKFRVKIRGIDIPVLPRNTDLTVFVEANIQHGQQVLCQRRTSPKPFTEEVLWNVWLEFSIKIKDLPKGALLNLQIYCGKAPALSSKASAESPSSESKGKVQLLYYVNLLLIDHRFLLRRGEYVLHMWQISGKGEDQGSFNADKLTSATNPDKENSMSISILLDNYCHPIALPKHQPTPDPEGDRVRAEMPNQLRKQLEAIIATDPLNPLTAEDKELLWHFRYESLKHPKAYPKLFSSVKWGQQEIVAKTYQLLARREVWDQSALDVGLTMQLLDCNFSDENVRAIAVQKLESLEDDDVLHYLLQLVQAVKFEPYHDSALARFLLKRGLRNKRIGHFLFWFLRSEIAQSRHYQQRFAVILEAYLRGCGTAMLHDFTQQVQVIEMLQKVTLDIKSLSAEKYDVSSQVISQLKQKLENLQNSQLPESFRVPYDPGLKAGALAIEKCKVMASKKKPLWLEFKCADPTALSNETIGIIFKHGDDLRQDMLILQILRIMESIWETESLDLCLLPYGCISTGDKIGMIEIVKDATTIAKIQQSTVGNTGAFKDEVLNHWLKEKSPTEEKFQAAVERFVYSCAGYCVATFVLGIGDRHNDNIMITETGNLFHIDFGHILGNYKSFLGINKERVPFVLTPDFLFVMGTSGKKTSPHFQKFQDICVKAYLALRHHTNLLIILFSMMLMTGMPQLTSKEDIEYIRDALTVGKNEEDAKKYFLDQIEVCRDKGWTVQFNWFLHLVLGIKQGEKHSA
Assay: PI 3-Kinase (human) HTRF assay, p110γ
Assay type: biochemical
Settings: read-out: PI3K γ IC50
pIC50: −log10 of the molar value.
Quick reference for pIC50 among some molecules

MOLECULE: CC(C)N1CCC(Nc2ncnc3ccc(-c4ccc5oc(N)nc5c4)cc23)CC1
pIC50: > 5.00
--
MOLECULE: CC(C)(C#N)c1ccc(Nc2ncnc3ccc(-c4ccc5oc(N)nc5c4)cc23)cc1
pIC50: > 7.00
--
MOLECULE: Nc1nc2cc(-c3ccc4ncc(-c5cn[nH]c5)nc4c3)ccc2o1
pIC50: > 7.00
--
MOLECULE: CN1CC(C(=O)N2CCC(Nc3ncnc4ccc(-c5ccc6oc(N)nc6c5)cc34)CC2)C1
pIC50: > 6.00
--
MOLECULE: Nc1nc2cc(-c3ccc4ncc(N5CCOCC5)n4n3)ccc2o1
pIC50: > 5.00
--
MOLECULE: Nc1nc2ccc(-c3ccc4nccc(-c5ccncc5)c4c3)cc2s1
pIC50: > 6.00

Reported pIC50 for CN1CCC(Nc2ncnc3ccc(-c4ccc5oc(N)nc5c4)cc23)CC1 was > 7.00

pIC50 measured on Cc1ccc(-c2cnc3ccc(-c4ccc5oc(N)nc5c4)cc3n2)cn1 = > 7.00

Reported pIC50 ( Nc1nc2cc(-c3ccc4ncc(-c5cn[nH]c5)n4n3)ccc2o1 ) = > 7.00

pIC50 for CCn1cnc2ccc(-c3ccc4oc(N)nc4c3)cc2c1=O is > 7.00

// recorded pIC50 for Nc1nc2cc(-c3ccc4nccc(NC5CCOCC5)c4c3)ccc2o1 : > 5.00

Field pIC50 (entry Nc1nc2cc(-c3ccc4nccc(-c5ccncc5)c4c3)ccc2s1 ) reads > 7.00

====

Target: p110γ (Homo sapiens (Human))
Assay: PI 3-Kinase (human) HTRF assay, p110γ
Type: biochemical
Details: read-out: PI3K γ IC50
pIC50: −log10 of the molar value.
pIC50 values by entry

Worked cases, answers included:
COMPOUND_STRUCTURE_STRING: CS(=O)(=O)N1CCN(c2cnc3ccc(-c4ccc5oc(N)nc5c4)cc3n2)CC1
pIC50: > 7.00
//
COMPOUND_STRUCTURE_STRING: Nc1nc2cc(-c3ccc4ncc(N5CCCCC5)nc4c3)ccc2o1
pIC50: > 5.00
//
COMPOUND_STRUCTURE_STRING: CN1CCN(c2ccnc3ccc(-c4ccc5oc(N)nc5c4)cc23)CC1
pIC50: > 5.00
//
COMPOUND_STRUCTURE_STRING: CC(=O)N1CCC(N(C)c2ncnc3ccc(-c4ccc5oc(N)nc5c4)cc23)CC1
pIC50: > 6.00

In plain terms, Nc1nc2cc(-c3ccc4ncc(-c5ccccn5)nc4c3)ccc2o1 has a documented pIC50 of > 7.00

pIC50 reported for this compound Nc1nc2cc(-c3ccc4nccc(-c5cccnc5)c4c3)ccc2o1 : > 7.00

====

Target: p110δ/p85α (Homo sapiens (Human), UniProt O00329)
Sequence (O00329 whole entry, one chain of several): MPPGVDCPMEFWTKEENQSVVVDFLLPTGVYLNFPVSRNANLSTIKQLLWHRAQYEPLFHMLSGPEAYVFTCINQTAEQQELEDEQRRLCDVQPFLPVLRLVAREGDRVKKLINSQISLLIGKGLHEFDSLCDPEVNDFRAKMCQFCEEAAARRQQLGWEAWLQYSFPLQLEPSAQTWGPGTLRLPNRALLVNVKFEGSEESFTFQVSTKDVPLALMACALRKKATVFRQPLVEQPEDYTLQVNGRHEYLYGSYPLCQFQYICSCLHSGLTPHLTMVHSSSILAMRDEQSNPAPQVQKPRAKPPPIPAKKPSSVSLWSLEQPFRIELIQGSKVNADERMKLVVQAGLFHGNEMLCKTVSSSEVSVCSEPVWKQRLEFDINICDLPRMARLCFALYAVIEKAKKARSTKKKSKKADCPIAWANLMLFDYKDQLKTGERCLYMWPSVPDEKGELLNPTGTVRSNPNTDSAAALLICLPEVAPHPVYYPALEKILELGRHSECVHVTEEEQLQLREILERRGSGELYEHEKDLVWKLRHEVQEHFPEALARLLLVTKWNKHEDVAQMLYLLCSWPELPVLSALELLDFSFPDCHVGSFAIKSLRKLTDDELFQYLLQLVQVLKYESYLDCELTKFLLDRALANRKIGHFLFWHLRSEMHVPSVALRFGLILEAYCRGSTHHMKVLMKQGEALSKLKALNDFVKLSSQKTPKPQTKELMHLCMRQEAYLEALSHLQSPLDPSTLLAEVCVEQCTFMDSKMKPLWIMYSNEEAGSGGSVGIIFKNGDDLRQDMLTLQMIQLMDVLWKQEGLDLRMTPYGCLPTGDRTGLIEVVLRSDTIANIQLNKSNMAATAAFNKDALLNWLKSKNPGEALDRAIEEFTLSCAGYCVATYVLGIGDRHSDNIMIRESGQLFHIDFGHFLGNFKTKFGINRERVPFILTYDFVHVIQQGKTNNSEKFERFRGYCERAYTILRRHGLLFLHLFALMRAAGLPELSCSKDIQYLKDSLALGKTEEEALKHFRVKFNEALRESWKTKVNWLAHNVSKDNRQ
Experiment: PI 3-Kinase (human) HTRF assay, p110δ/p85α
Assay type: biochemical
Details: in vitro; read-out: PI3K δ IC50
OBSERVATION_TYPE: IC50

COMPOUND: Nc1nc2cc(-c3ccc4ncc(C(=O)N5CC(O)C5)n4c3)ccc2o1 [compound 200]
IC50: < 10 µM
//
COMPOUND: Cc1cc(-c2ccc3oc(N)nc3c2)cc2c(C(=O)N3CCOCC3)cnn12 [compound 357]
IC50: < 10 µM

Per the record, Nc1nc2cc(-c3ccc4ncc(N5CC(C(=O)NC6CC6)C5)nc4c3)ccc2o1 [compound 215] has IC50 of < 10 µM

// Nc1nc2cc(-c3ccc4ncc(N5CC(N6CCN(CCO)CC6)C5)nc4c3)ccc2o1 [compound 333] : IC50 value = < 1 µM

Just so you know, measured IC50 for Nc1nc2cc(-c3ccc4ncc(C(=O)N5CCC5)n4c3)ccc2o1 [compound 197] came out at < 10 µM

Query CN1CCN([C@@H]2CCN(c3cnc4ccc(-c5ccc6oc(N)nc6c5)cc4n3)C2)CC1 [compound 379] yields IC50 of < 10 µM

Sure, the documented IC50 for Cc1cn(C2CCN(c3cnc4ccc(-c5ccc6oc(N)nc6c5)cc4n3)CC2)cn1 [compound 338] is < 10 µM

Reported IC50 ( CN1CCC(Nc2ncnc3ccc(-c4ccc5oc(N)nc5c4)nc23)CC1 [compound 212] ) = < 1 µM

The reported value for C[C@@H]1CN(C2CN(c3cnc4ccc(-c5ccc6oc(N)nc6c5)cc4n3)C2)CCN1 [compound 355] in terms of IC50 is < 1 µM

CC(C)(N)C(=O)N1CCN(c2cnc3ccc(-c4ccc5oc(N)nc5c4)cc3n2)CC1 [compound 213] has a reported IC50 of < 1 µM

====

Target: p110α/p85α (Homo sapiens (Human), UniProt P42336)
Experiment: PI 3-Kinase (human) HTRF assay, p110α/p85α
Type: biochemical
Conditions: read-out: PI3K α In Vitro IC50
pIC50: −log10 of the molar value.
Reported pIC50 values are given for each entry in this list.

See these solved cases before continuing.
COMPOUND_STRUCTURE_STRING: CC(C)N1CCC(n2cnc3ccc(-c4cncc(NS(=O)(=O)c5ccc(F)cc5F)c4)cc3c2=O)CC1
OBSERVATION_TYPE: pIC50
RESULT: > 6.00

COMPOUND_STRUCTURE_STRING: Nc1nc2cc(-c3ccc4ncc(C(=O)N5CCC(F)CC5)n4c3)ccc2o1
OBSERVATION_TYPE: pIC50
RESULT: > 6.00

Field pIC50 (p110α/p85α (Homo sapiens (Human), UniProt P42336)), entry Cc1cc(-c2ccc3oc(N)nc3c2)cc2c(-c3ccncc3)cnn12 : > 7.00

The compound Nc1nc2cc(-c3ccc4ncc(C(=O)N5CC[C@H](N6CCOCC6)C5)n4c3)ccc2o1 on p110α/p85α (Homo sapiens (Human), UniProt P42336): pIC50 was > 7.00

The compound O=C(c1cnc2ccc(-c3cncc(NS(=O)(=O)c4ccc(F)cc4F)c3)cn12)N1CCOCC1 on p110α/p85α (Homo sapiens (Human), UniProt P42336): pIC50 was > 7.00

The measured pIC50 that Nc1nsc2cc(-c3ccc4ncc(C(=O)N5CCOCC5)n4c3)ccc12 showed for p110α/p85α (Homo sapiens (Human), UniProt P42336) is > 5.00

# COc1ncc(-c2ccc3ncn(C4CCN(C)CC4)c(=O)c3c2)cc1NS(C)(=O)=O with p110α/p85α (Homo sapiens (Human), UniProt P42336): pIC50 is > 7.00

Recorded pIC50 for Nc1nc2cc(-c3ccc4ncc(C(=O)N5CCC(F)(F)CC5)n4c3)ccc2o1 on p110α/p85α (Homo sapiens (Human), UniProt P42336) was > 6.00

Tested system p110α/p85α (Homo sapiens (Human), UniProt P42336); pIC50 recorded for C[C@H]1CN(C2CN(C(=O)c3cnc4ccc(-c5ccc6oc(N)nc6c5)cn34)C2)CCN1C was > 7.00

Item: Nc1nc2cc(-c3cc(F)c4ncc(C(=O)N5CCOCC5)n4c3)ccc2o1 | System: p110α/p85α (Homo sapiens (Human), UniProt P42336) | pIC50: > 5.00

Considering Nc1nc2cc(-c3ccc4ncc(C(=O)N5CC[C@@H](n6cccn6)C5)n4c3)ccc2o1 , its pIC50 with p110α/p85α (Homo sapiens (Human), UniProt P42336) was recorded as > 7.00
